// data source = patent US20150087812A1

Target: recombinant human ATX beta isoform with N-terminal purification tag (human, UniProt Q13822 49-863)
Assay: ELISA, Fab-His captured by anti-Fd, 5 nM biotinylated human ATX beta
Listing of entries alongside the reported Fab Binding.

BINDER	Fab Binding
Fab F67 (VH H60, VL L61) (Fab, V domains shown, Soluble Fab-His; converted to mAb B10) VH: QVQLVQSGAEVKKPGSSVKVSCKASGGTFSSYAISWVRQAPGQGLEWMGGIIPIFGTANYAQKFQGRVTITADESTSTAYMELSSLRSEDTAVYYCARIARYARGYMHTFDYWGQGTLVTVSS VL: DIQMTQSPSSLSASVGDRVTITCRASQSISSYLNWYQQKPGKAPKLLIYAASSLQSGVPSRFSGSGSGTDFTLTISSLQPEDFATYYCQQHLSIPITFGQGTKVEIK	8.8e+06 relative chemiluminescence units
Fab F34 (VH H2, VL L28) (Fab, V domains shown, Soluble Fab-His; converted to mAb B5) VH: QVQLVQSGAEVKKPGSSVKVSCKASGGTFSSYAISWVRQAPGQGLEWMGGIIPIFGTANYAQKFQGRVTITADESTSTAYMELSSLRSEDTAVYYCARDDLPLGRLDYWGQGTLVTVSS VL: EIVLTQSPATLSLSPGERATLSCRASQSVAKFLAWYQQKPGQAPRLLIYKASNRATGIPARFSGSGSGTDFTLTISSLEPEDFAVYYCQQFNSAPITFGQGTKVEIK	2.3e+06 relative chemiluminescence units
Fab F89 (VH H70, VL L82) (Fab, V domains shown, Soluble Fab-His; converted to mAb B9) VH: QVQLVQSGAEVKKPGSSVKVSCKASGGTFSSYAISWVRQAPGQGLEWMGGISPYFGNANYAQKFQGRVTITADESTSTAYMELSSLRSEDTAVYYCARYGDFGGNVFTEFDYWGQGTLVTVSS VL: EIVLTQSPGTLSLSPGERATLSCRASQSVNNSDLAWYQQKPGQAPRLLIYTASSRATGIPDRFSGSGSGTDFTLTISRLEPEDFAVYYCQQATTVPLTFGQGTKVEIK	5.7e+06 relative chemiluminescence units
Fab F50 (VH H25, VL L46) (Fab, V domains shown, Soluble Fab-His) VH: QVQLVQSGAEVKKPGSSVKVSCKASGGTFSSYAISWVRQAPGQGLEWMGGIIPIFGTANYAQKFQGRVTITADESTSTAYMELSSLRSEDTAVYYCARDDLALGRLDYWGQGTLVTVSS VL: EIVLTQSPATLSLSPGERATLSCRASQSVSSFLAWYQQKPGQAPRLLIYTASNRATGIPARFSGSGSGTDFTLTISSLEPEDFAVYYCQQSHRAPWTFGQGTKVEIK	1.9e+06 relative chemiluminescence units
Fab F143 (VH H148, VL H2RL12) (Fab, V domains shown, Soluble Fab-His; converted to mAb B13) VH: QVQLVQSGAEVKKPGSSVKVSCKASGGTFSSYAISWVRQAPGQGLEWMGGIIPIFGTANYAQKFQGRVTITADESTSTAYMELSSLRSEDTAVYYCARDFSVYGDFDYWGQGTLVTVSS VL: DIQMTQSPSSLSASVGDRVTITCRASQSIAKWLNWYQQKPGKAPKLLIYAASSLQSGVPSRFSGSGSGTDFTLTISSLQPEDFATYYCQQSYSTPLTFGQGTKVEIK	4.9e+06 relative chemiluminescence units
Fab F43 (VH H2, VL L44) (Fab, V domains shown, Soluble Fab-His) VH: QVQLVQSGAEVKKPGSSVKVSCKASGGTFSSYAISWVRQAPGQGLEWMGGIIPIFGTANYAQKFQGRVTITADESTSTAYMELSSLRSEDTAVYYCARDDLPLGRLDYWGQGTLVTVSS VL: EIVLTQSPATLSLSPGERATLSCRASQSVAKFLAWYQQKPGQAPRLLIYKASNRATGIPARFSGSGSGTDFTLTISSLEPEDFAVYYCQQYSTWPFTFGQGTKVEIK	980000 relative chemiluminescence units
Fab F105 (VH H97, VL L93) (Fab, V domains shown, Soluble Fab-His) VH: QVQLVQSGAEVKKPGSSVKVSCKASGGTFSSYGISWVRQAPGQGLEWMGGIIPIFGTANYAQKFQGRVTITADESTSTAYMELSSLRSEDTAVYYCARGDDNEVIYHLDYWGQGTLVTVSS VL: EIVLTQSPGTLSLSPGERATLSCRASQSVAKSDLAWYQQKPGQAPRLLIYTASSRATGIPDRFSGSGSGTDFTLTISRLEPEDFAVYYCQQDYGYPLTFGQGTKVEIK	970000 relative chemiluminescence units
Fab F104 (VH H96, VL IFWL124) (Fab, V domains shown, Soluble Fab-His; converted to mAb B14) VH: QVQLVQSGAEVKKPGSSVKVSCKASGGTFSSYAISWVRQAPGQGLEWMGGIIPIFGNTNYAQKFQGRVTITADESTSTAYMELSSLRSEDTAVYYCARDISGYGDLDYWGQGTLVTVSS VL: DIQMTQSPSSLSASVGDRVTITCRASQSIDGWLNWYQQKPGKAPKLLIYAASSLQSGVPSRFSGSGSGTDFTLTISSLQPEDFATYYCQQSYSTPLTFGQGTKVEIK	5.1e+06 relative chemiluminescence units
Fab F45 (VH H2, VL L34) (Fab, V domains shown, Soluble Fab-His) VH: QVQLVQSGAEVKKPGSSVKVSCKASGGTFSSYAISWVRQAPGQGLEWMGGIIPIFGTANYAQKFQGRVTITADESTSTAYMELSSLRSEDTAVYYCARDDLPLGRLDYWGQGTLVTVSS VL: EIVLTQSPATLSLSPGERATLSCRASQSVSSWLAWYQQKPGQAPRLLIYYASNRATGIPARFSGSGSGTDFTLTISSLEPEDFAVYYCQQFKGWPFTFGQGTKVEIK	1.2e+06 relative chemiluminescence units
Fab F85 (VH H58, VL L79) (Fab, V domains shown, Soluble Fab-His) VH: QVQLVQSGAEVKKPGSSVKVSCKASGGTFSSYAISWVRQAPGQGLEWMGGIIPIFGTANYAQKFQGRVTITADESTSTAYMELSSLRSEDTAVYYCARDLYGIDIYYALDYWGQGTLVTVSS VL: EIVLTQSPGTLSLSPGERATLSCRASQSVSSSYLAWYQQKPGQAPRLLIYGASSRATGIPDRFSGSGSGTDFTLTISRLEPEDFAVYYCQQSNTLPLTFGQGTKVEIK	1.7e+06 relative chemiluminescence units
